Values were extracted from ChEMBL document CHEMBL1128996.

organism: Rattus norvegicus; assay: Compound was tested for cardiac ionotropism and expressed as dP/dtmax.; format: functional; set-up: concentration or dose not given beside the values
The reader will find reported dP/dt max values listed item by item below.
Report only the number, with the unit mmHg s-1 understood.

INSERT INTO measurements (smiles_data, readout_kind, unit_annotation, numeric_result) VALUES
  ('COc1ccc(/C=C/C(=O)NCCCCC/N=C(\N)NCC=C(C)C)cc1OC.CS(=O)(=O)O', 'dP/dt max', 'mmHg s-1', 5028),
  ('COc1ccc(CCC(=O)NCCCC/N=C(\N)NCC=C(C)C)cc1OC.CS(=O)(=O)O', 'dP/dt max', 'mmHg s-1', 2252),
  ('COc1ccc([C@H]2C[C@@H]2C(=O)NCCCC/N=C(\N)NCC=C(C)C)cc1OC.CS(=O)(=O)O', 'dP/dt max', 'mmHg s-1', 2781),
  ('CC(C)=CC/N=C(/N)NCCCCNC(=O)/C=C/c1ccccc1.CS(=O)(=O)O', 'dP/dt max', 'mmHg s-1', 6070),
  ('COc1ccc(/C=C/C(=O)NCCCC/N=C(\N)NCC=C(C)C)cc1OC.CS(=O)(=O)O', 'dP/dt max', 'mmHg s-1', 2996);

Please examine the following record next.
Q. Note dP/dt max for the molecule shown: `COc1ccc(C#CC(=O)NCCCC/N=C(\N)NCC=C(C)C)cc1OC.CS(=O)(=O)O`
A. 3424

###

tested on: Rattus norvegicus; test: Compound was tested for its effect on heart rate in anaesthetized rats after i.v. administration at a dose of 4.12 umol/kg.; assay type: functional
readout_kind: HR (delta beats min-1)
Report only the number, with the unit delta beats min-1 understood.

Q. Note HR for the molecule shown: `COc1ccc(CCC(=O)NCCCC/N=C(\N)NCC=C(C)C)cc1OC.CS(=O)(=O)O`
A. -12

Q. Note HR for the molecule shown: `CC(C)=CC/N=C(/N)NCCCCNC(=O)/C=C/c1ccccc1.CS(=O)(=O)O`
A. 19

Q. Note HR for the molecule shown: `COc1ccc(C(=O)NCCCC/N=C(\N)NCC=C(C)C)cc1.CS(=O)(=O)O`
A. -16

Q. Note HR for the molecule shown: `COc1ccc(C#CC(=O)NCCCC/N=C(\N)NCC=C(C)C)cc1OC.CS(=O)(=O)O`
A. 14

Q. Note HR for the molecule shown: `COc1ccc([C@H]2C[C@@H]2C(=O)NCCCC/N=C(\N)NCC=C(C)C)cc1OC.CS(=O)(=O)O`
A. -19

Q. Note HR for the molecule shown: `COc1ccc(CC(=O)NCCCC/N=C(\N)NCC=C(C)C)cc1OC.CS(=O)(=O)O`
A. -24

Q. Note HR for the molecule shown: `COc1ccc(/C=C/C(=O)NCCCC/N=C(\N)NCC=C(C)C)cc1OC.CS(=O)(=O)O`
A. 22

###

species: Rattus norvegicus; assay: Compound was tested for cardiac ionotropism and expressed as dP/dtmax.; type: functional; parameters: concentration or dose not given beside the values
readout_kind: dP/dt max (mmHg s-1)
Report only the number, with the unit mmHg s-1 understood.

As a guide, the following entries are already answered.
INSERT INTO measurements (smiles_data, unit_annotation, numeric_result) VALUES
  ('COc1ccc(/C=C/C(=O)NCCCCCC/N=C(\N)NCC=C(C)C)cc1OC.CS(=O)(=O)O', 'mmHg s-1', 648),
  ('COc1ccc(CC(=O)NCCCC/N=C(\N)NCC=C(C)C)cc1OC.CS(=O)(=O)O', 'mmHg s-1', 3088);

Please examine the following record next.
Q. Note dP/dt max for the molecule shown: `COc1ccc(C(=O)NCCCC/N=C(\N)NCC=C(C)C)cc1.CS(=O)(=O)O`
A. 3249
